- assayed system: Serine/threonine-protein kinase TAO2 (Homo sapiens, UniProt Q9UL54); note: in the data inactive means no Kd found up to 30 µM
- Sequence (Q9UL54 whole entry): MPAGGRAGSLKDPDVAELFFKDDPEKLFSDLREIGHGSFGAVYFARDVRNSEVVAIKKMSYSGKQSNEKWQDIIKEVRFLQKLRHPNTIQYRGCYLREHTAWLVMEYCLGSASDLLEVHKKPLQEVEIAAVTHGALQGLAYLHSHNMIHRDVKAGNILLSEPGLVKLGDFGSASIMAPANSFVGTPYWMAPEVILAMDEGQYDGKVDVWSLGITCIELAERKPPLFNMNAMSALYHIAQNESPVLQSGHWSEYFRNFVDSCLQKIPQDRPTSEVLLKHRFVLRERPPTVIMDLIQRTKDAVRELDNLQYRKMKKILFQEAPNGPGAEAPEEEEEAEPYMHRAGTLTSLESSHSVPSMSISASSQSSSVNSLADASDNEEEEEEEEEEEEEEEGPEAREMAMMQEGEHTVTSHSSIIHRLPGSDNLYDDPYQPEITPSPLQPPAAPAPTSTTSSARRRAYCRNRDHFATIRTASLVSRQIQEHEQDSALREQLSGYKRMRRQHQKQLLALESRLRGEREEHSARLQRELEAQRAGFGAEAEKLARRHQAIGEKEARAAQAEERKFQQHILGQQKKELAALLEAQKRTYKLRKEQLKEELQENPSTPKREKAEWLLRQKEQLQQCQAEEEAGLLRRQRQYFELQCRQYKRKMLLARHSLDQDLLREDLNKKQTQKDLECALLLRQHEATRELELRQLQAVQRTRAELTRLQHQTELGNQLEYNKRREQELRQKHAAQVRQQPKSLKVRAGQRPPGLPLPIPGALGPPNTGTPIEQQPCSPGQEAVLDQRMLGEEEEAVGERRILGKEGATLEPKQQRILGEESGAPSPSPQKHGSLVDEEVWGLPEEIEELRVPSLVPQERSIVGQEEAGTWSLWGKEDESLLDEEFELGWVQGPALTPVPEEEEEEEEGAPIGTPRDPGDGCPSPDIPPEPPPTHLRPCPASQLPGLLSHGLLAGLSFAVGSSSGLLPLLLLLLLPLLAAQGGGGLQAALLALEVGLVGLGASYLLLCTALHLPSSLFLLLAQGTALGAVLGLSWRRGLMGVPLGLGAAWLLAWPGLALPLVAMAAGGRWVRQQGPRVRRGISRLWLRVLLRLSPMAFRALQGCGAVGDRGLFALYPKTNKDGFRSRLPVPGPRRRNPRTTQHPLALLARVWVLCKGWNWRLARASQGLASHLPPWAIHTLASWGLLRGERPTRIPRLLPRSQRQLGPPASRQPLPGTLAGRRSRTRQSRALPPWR
Activity calls are given as the source filed them.
Mark one answer only. Choices: active, inactive

{"columns": ["molecule", "label value"],
 "data": [
  ["C1=C/COCc2cc(ccc2OCCN2CCCC2)Nc2nccc(n2)-c2cccc(c2)COC/1", "active"],
  ["CO[C@H]1C[C@@H]2CC[C@@H](C)[C@@](O)(O2)C(=O)C(=O)N2CCCC[C@H]2C(=O)O[C@H]([C@H](C)C[C@@H]2CC[C@@H](OCCO)[C@H](OC)C2)CC(=O)[C@H](C)/C=C(\\C)[C@@H](O)[C@@H](OC)C(=O)[C@H](C)C[C@H](C)/C=C/C=C/C=C/1C", "inactive"],
  ["CC(=O)Nc1cccc(-n2c(=O)n(C3CC3)c(=O)c3c(Nc4ccc(I)cc4F)n(C)c(=O)c(C)c32)c1", "inactive"],
  ["COc1cc2nccc(Oc3ccc(NC(=O)NC4CC4)c(Cl)c3)c2cc1C(N)=O", "inactive"]
]}

Dear all, I need the recorded test outcome for O=C(Nc1ccc(-c2ccnc(Nc3ccc(N4CCOCC4)cc3)n2)cc1)C1CCCN1 (configuration not stated) , thank you.
inactive

Please state the recorded outcome for this molecule: CNS(=O)(=O)Nc1nccc(Cc2c(C)c3ccc(Oc4ncccn4)cc3oc2=O)c1F
inactive

# lookup: test call for Cc1c(F)cc(C(=O)NC2CC2)cc1-c1ccc(C(=O)NCC(C)(C)C)cn1
inactive

----------
Quick record of Kd values for Mitogen-activated protein kinase kinase kinase 20 (Homo sapiens, UniProt Q9NYL2).
The source made the active and inactive calls.

Some compounds with recorded Kd:
{"columns": ["compound", "assayed system", "Kd"],
 "data": [
  ["CN1N=C(N)c2cn([C@@H]3O[C@H](COP(=O)(O)O)[C@@H](O)[C@H]3O)c3ncnc1c23 [TRICIRIBINE PHOSPHATE]", "Mitogen-activated protein kinase kinase kinase 20 (Homo sapiens, UniProt Q9NYL2)", "> 30 µM (inactive)"],
  ["CN1CCC(COc2cnc(-c3cccc(Cn4nc(-c5cccc(C#N)c5)ccc4=O)c3)nc2)CC1", "Mitogen-activated protein kinase kinase kinase 20 (Homo sapiens, UniProt Q9NYL2)", "> 30 µM (inactive)"],
  ["COc1cc(CCc2cc(NC(=O)c3ccc(N4C[C@@H](C)N[C@@H](C)C4)cc3)n[nH]2)cc(OC)c1", "Mitogen-activated protein kinase kinase kinase 20 (Homo sapiens, UniProt Q9NYL2)", "9.54 µM (active)"],
  ["COc1cc(N2CCC(N3CCN(C)CC3)CC2)ccc1Nc1ncnc(Nc2ccccc2S(=O)(=O)C(C)C)n1", "Mitogen-activated protein kinase kinase kinase 20 (Homo sapiens, UniProt Q9NYL2)", "> 30 µM (inactive)"],
  ["CCCS(=O)(=O)Nc1ccc(F)c(C(=O)c2c[nH]c3ncc(-c4ccc(Cl)cc4)cc23)c1F", "Mitogen-activated protein kinase kinase kinase 20 (Homo sapiens, UniProt Q9NYL2)", "0.316 µM (active)"]
]}

I would be grateful if you could share the reported Kd for CNC(=O)CN1CCC(Oc2cc3c(Nc4cccc(Cl)c4F)ncnc3cc2OC)CC1 .
> 30 µM (inactive)

Consider the compound shown here: Cn1ncc(Cl)c1-c1cc(C(=O)N[C@H](CN)Cc2cccc(F)c2)sc1Cl What is its recorded Kd?
> 30 µM (inactive)

Using the record for C[C@@H]1CN(Cc2ccc(F)cc2)[C@@H](C)CN1C(=O)c1cc2c(C(=O)C(=O)N(C)C)cn(C)c2cc1Cl , report its Kd.
> 30 µM (inactive)

----------
- assayed system: Ephrin type-B receptor 4 (Homo sapiens); note: in the data inactive means no Kd found up to 30 µM
- Sequence (P54760 whole entry): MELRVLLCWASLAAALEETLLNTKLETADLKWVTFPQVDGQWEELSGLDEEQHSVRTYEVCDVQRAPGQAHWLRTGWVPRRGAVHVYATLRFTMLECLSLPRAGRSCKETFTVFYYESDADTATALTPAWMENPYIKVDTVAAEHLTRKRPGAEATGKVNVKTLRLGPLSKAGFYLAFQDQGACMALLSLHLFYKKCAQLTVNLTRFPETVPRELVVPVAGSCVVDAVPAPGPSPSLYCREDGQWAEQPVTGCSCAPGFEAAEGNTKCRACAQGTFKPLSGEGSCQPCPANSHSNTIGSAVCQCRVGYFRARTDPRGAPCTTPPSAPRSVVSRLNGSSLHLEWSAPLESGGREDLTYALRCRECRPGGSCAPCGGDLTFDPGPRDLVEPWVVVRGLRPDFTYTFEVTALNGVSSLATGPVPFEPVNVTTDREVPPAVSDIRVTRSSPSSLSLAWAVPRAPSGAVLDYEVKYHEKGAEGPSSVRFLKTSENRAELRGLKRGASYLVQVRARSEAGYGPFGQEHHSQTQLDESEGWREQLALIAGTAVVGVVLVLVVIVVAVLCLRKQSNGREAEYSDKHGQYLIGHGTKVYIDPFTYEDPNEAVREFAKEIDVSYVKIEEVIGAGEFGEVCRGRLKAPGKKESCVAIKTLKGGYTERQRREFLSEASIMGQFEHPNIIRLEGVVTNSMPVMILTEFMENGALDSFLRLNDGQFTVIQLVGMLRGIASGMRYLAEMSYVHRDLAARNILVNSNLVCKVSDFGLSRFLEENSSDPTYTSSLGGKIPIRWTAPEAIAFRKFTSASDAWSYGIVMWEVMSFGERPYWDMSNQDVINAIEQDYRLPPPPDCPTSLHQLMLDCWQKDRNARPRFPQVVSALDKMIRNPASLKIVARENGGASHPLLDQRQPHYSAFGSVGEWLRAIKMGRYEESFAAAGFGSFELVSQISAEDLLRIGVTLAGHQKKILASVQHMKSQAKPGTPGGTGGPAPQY
Activity calls are given as the source filed them.
# valid calls are active, inactive; nothing else

Worked cases, answers included:
{"columns": ["compound", "assayed system", "label value"],
 "data": [
  ["Cn1ncc(Cl)c1-c1cc(C(=O)N[C@H](CN)Cc2cccc(F)c2)sc1Cl [AFURESERTIB]", "Ephrin type-B receptor 4 (Homo sapiens)", "inactive"],
  ["CCS(=O)(=O)N1CC(CC#N)(n2cc(-c3ncnc4[nH]ccc34)cn2)C1 [BARICITINIB]", "Ephrin type-B receptor 4 (Homo sapiens)", "inactive"],
  ["CCCS(=O)(=O)Nc1ccc(F)c(C(=O)c2c[nH]c3ncc(-c4ccc(Cl)cc4)cc23)c1F [VEMURAFENIB]", "Ephrin type-B receptor 4 (Homo sapiens)", "inactive"],
  ["C[C@@H](c1ccc2nccn2c1)n1nnc2ncc(-c3cnn(C)c3)nc21 [SAVOLITINIB]", "Ephrin type-B receptor 4 (Homo sapiens)", "inactive"]
]}

Please find the next compound below.
Please let me know the test result on file for CN1CCC(COc2cnc(-c3cccc(Cn4nc(-c5cccc(C#N)c5)ccc4=O)c3)nc2)CC1 [TEPOTINIB] .
inactive

FYI, the data here is from ChEMBL document CHEMBL3991601.
